- system_under_test: T1, recombinant rat MASP1 active protease (amino acids 302-704, C-terminal His Tag) (rat, UniProt Q8CHN8 302-704)
- T1 sequence: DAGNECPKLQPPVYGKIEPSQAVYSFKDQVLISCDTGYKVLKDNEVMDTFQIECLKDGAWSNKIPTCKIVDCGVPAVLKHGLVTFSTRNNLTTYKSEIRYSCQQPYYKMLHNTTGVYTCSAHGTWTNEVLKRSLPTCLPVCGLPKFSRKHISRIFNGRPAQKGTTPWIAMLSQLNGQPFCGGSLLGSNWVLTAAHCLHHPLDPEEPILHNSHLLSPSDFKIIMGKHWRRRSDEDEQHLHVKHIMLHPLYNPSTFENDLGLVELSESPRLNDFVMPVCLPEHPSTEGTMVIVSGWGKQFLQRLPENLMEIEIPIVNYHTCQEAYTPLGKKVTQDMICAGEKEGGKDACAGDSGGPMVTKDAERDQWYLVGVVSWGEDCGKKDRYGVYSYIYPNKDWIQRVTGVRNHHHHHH
- run_description: cell-based or functional assay
Bridge positions count the residues as written; N and C are the ends. Square brackets hold non-standard residues; d marks the D form. Ends that are not written are not given here. Aib = CC(C)(N)C(=O)O
observable: rat MASP1 IC50 (nM)
Only the number, expressed in nM, is required.

Dear colleague, I am looking for the recorded rat MASP1 IC50 of the following binder: GICSRSLPPICI[Aib]D-OH (disulfide 3-11; N-terminus assumed; SMILES CC[C@H](C)[C@H](NC(=O)CN)C(=O)N[C@H]1CSSC[C@@H](C(=O)N[C@H](C(=O)NC(C)(C)C(=O)N[C@@H](CC(=O)O)C(=O)O)[C@@H](C)CC)NC(=O)[C@H]([C@@H](C)CC)NC(=O)[C@@H]2CCCN2C(=O)[C@@H]2CCCN2C(=O)[C@H](CC(C)C)NC(=O)[C@H](CO)NC(=O)[C@H](CCCNC(=N)N)NC(=O)[C@H](CO)NC1=O) [Example 286: GIC+SRSLPPIC+I-(Aib)-D-OH]
230
